- targetSystem: WT Spike (SARS-CoV2)
experimentalEndpoint: Kd (nM)
Numbers only, in nM.

// known answers, use as guide
>  <binder>
Ab_26 scFv-Fc (scFv, V domains shown) VH: QVQLVQSGGGLVQPGRSLRLSCAASGFTFDDYAMHWVRQVPGKGLEWVSGIDWNSGVIGYADSVKGRFTISRDNAKNSLYLQMNSLRAEDTALYYCAKDAYSYGFLGAFDIWGQGTMVTVSS VL: LPVLTQPPSVSVAPGQTASITCGGDNIRTKGVHWYQQKPGQAPLLVIYYASDRPSGIPERFSGSSSGNTATLTISRVEAGDEADYYCQVWDSSSDLVVFGGGTTLTVL

>  <Kd (nM)>
0.011

$$$$
>  <binder>
Ab_14 scFv-Fc (scFv, V domains shown) VH: QVQLQQSGPGLVKPSQTLSLTCAISGDSVSSNSAAWNWIRQSPARGLEWLGRTYYRSRWYNDYAISMKSRITINPDTSKNQFSLQLESVTPEDTAVYYCAREIRGFDYWGQGTLVTVSS VL: QSVLTQPPSASGSPGQSVTISCTGTSSDVGAYNFVSWYQHHPGKAPKLIIYDFNKRPSGVPDRFSGSKSGNTASLTVSGLQADDEADYYCSSYAGSNNFDVVFGGGTKLTVL

>  <Kd (nM)>
0.00822

$$$$

Input line: // Kd lookup, key: Ab_16 scFv-Fc (scFv, V domains shown) VH: QVQLVQSGGGVVQPGRSLRLSCAASGFTFSNYGMHWVRQAPGKGLEWVALIWERGSKKDYADSVKGRFTVSRDNSKNTLYLQMNSLRPEDTAVYFCAREGISMTGAEYFQHWGQGTLVTVSS VL: QSVLTQPPSVSGSPGQRVTMSCTGSSSNIGAGYDVHWYQQVPGAAPRLLIYGTNNRPSGVPDRFSGSKSGTSASLTITGLQAEDEADYYCQSYDNSLTDPYVFGTGTKVTVL
Output line: 0.0118
